Quick list: viability, T/C per entry.
Test system: 967376-340-R-J2-PDC multicell spheroid viability;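 further: luminescence used as surrogate of cell viability; spheroids exposed to agents for 7 days before read-out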
Test: Anticancer human tumor 967376-340-R-J2-PDC patient-derived colon adenocarcinoma cell line growth inhibition [PI3K]
Conditions: second compound 0.0316 µM; first compound 0.1 µM; active compounds read low
Source text: Combinatorial screen of targeted agents with the PI3K inhibitors inavolisib, alpelisib, duvelisib, and copanlisib in multi-cell type tumor spheroids A high-throughput screen of multi-cell type tumor spheroids was designed to identify active combinations of targeted small molecules and PI3K pathway inhibitors. […] Compounds. […] If the clinical Cmax for an agent had not been determined, the highest concentration tested was 10 microM. […]
readout.kind: viability, T/C (%)

>>> meas_value("CCN1CCN(Cc2ccc(Nc3ncc(F)c(-c4cc(F)c5nc(C)n(C(C)C)c5c4)n3)nc2)CC1 + CC(Nc1ccc2c(c1)OCCn1cc(N3C(=O)OCC3C(F)F)nc1-2)C(N)=O")
86.8
>>> meas_value("Cn1ncc(Cl)c1-c1cc(C(=O)NC(CN)Cc2cccc(F)c2)sc1Cl (stereo not given) + COc1c(OCCCN2CCOCC2)ccc2c3n(c(=NC(=O)c4cnc(N)nc4)nc12)CCN3")
80.7
>>> meas_value("CC1(C)CCC(CN2CCN(c3ccc(C(=O)NS(=O)(=O)c4ccc(NCC5CCOCC5)c([N+](=O)[O-])c4)c(Oc4cnc5[nH]ccc5c4)c3)CC2)=C(c2ccc(Cl)cc2)C1 + CC(Nc1ccc2c(c1)OCCn1cc(N3C(=O)OCC3C(F)F)nc1-2)C(N)=O")
86.5
>>> meas_value("C#Cc1c(F)ccc2cc(O)cc(-c3ncc4c(N5CC6CCC(C5)N6)nc(OCC56CCCN5CC(F)C6)nc4c3F)c12 (stereo not given) + Cc1nc(NC(=O)N2CCCC2C(N)=O)sc1-c1ccnc(C(C)(C)C(F)(F)F)c1")
85.6
>>> meas_value("CCCS(=O)(=O)Nc1ccc(F)c(C(=O)c2c[nH]c3ncc(-c4ccc(Cl)cc4)cc23)c1F + Cc1nc(NC(=O)N2CCCC2C(N)=O)sc1-c1ccnc(C(C)(C)C(F)(F)F)c1")
82
>>> meas_value("CCN1CCN(Cc2ccc(Nc3ncc(F)c(-c4cc(F)c5nc(C)n(C(C)C)c5c4)n3)nc2)CC1 + COc1c(OCCCN2CCOCC2)ccc2c3n(c(=NC(=O)c4cnc(N)nc4)nc12)CCN3")
52.3
>>> meas_value("C[C@@H](NC(=O)c1ncnc(N)c1Cl)c1ncc(C(=O)Nc2cc(C(F)(F)F)c(Cl)cn2)s1 + COc1c(OCCCN2CCOCC2)ccc2c3n(c(=NC(=O)c4cnc(N)nc4)nc12)CCN3")
77.1
>>> meas_value("CC(=O)c1c(C)c2cnc(Nc3ccc(N4CCNCC4)cn3)nc2n(C2CCCC2)c1=O + CC(Nc1ccc2c(c1)OCCn1cc(N3C(=O)OCC3C(F)F)nc1-2)C(N)=O")
84.7
>>> meas_value("CC1(C)CCC(Nc2ncc(C(F)(F)F)c(-c3c[nH]c4c(P(C)(C)=O)c(C#N)ccc34)n2)CN1 (stereo not given) + CC(Nc1ccc2c(c1)OCCn1cc(N3C(=O)OCC3C(F)F)nc1-2)C(N)=O")
76.8
>>> meas_value("CCN1CCN(Cc2ccc(Nc3ncc(F)c(-c4cc(F)c5nc(C)n(C(C)C)c5c4)n3)nc2)CC1 + CC(Nc1ncnc2nc[nH]c12)c1cc2cccc(Cl)c2c(=O)n1-c1ccccc1")
73.8
